- Test system: souris
- assay-remarks: Acute toxicity: mortality after single intraperitoneal administration of increasing doses
- Assay type: in vivo
- assay-conditions: DLO; mouse, single dose, intraperitoneal
metric: Dose limite 0 en (mg/kg)
Report the figure in mg/kg without appending any unit label.

If you can, please state the reported Dose limite 0 en value of CC1(c2ccc(F)cc2)CCC(N2CCN(CCO)CC2)c2ccccc21 (stereo not shown) . 100

If you can, please state the reported Dose limite 0 en value of CC(C)(C)c1ccc2c(c1)C(C)(c1ccc(F)cc1)CCC2N1CCN(CCOC(=O)Nc2ccccc2)CC1 (stereo not shown) . 100
